Known tissue uptake at 24 h of a selection of compounds
protocol-details: in vivo
run-conditions: BALB/c nude, mouse, in vivo, iv, total radioactivity, uptake Kidney
parameter: tissue uptake at 24 h (%ID/g)

compound="C[C@@H](O)[C@H](NC(=O)[C@@H]1CSSC[C@H](NC(=O)[C@@H](Cc2ccccc2)NC(=O)[C@H](CCCCNC(=O)c2cccc(NC(=O)N[C@@H]3CN(C4CCCCC4)c4ccccc4N(CC(=O)C(C)(C)C)C3=O)c2)NC(=O)COCCOCCNC(=O)CN2CCN(CC(=O)O)CCN(CC(=O)O)CCN(CC(=O)O)CC2)C(=O)N[C@@H](Cc2ccc(O)cc2)C(=O)N[C@H](Cc2c[nH]c3ccccc23)C(=O)N[C@@H](CCCCN)C(=O)N[C@@H]([C@@H](C)O)C(=O)N1)C(=O)O [Compound I-35, DOTA-OEG-K(Z360)-f[CYwKTC]T-OH]" parameter="tissue uptake at 24 h" assay_result=6.1
compound="C[C@@H](O)[C@H](NC(=O)[C@@H]1CSSC[C@H](NC(=O)[C@@H](Cc2ccccc2)NC(=O)COCCOCCNC(=O)[C@H](CCCCNC(=O)c2cccc(NC(=O)N[C@@H]3CN(C4CCCCC4)c4ccccc4N(CC(=O)C(C)(C)C)C3=O)c2)NC(=O)COCCOCCNC(=O)CN2CCN(CC(=O)O)CCN(CC(=O)O)CCN(CC(=O)O)CC2)C(=O)N[C@@H](Cc2ccc(O)cc2)C(=O)N[C@H](Cc2c[nH]c3ccccc23)C(=O)N[C@@H](CCCCN)C(=O)N[C@@H]([C@@H](C)O)C(=O)N1)C(=O)O [Compound I-52, DOTA-OEG-K(Z360)-OEG-f[CYwKTC]T-OH]" parameter="tissue uptake at 24 h" assay_result=14
